# assayed-target: UniProt:P60953
# protocol-text: Cdc42-GEF-assay, additional compound screening
# Assay type: biochemical
# Design: purchased Cytoskeleton Inc
# study-conditions: percentages of ZCL367 normalized to batch; less than 100% = more potent inhibitor
readout: % ZCL367 (inhibitor activity) (%)
// units = %; emit number, no label

Below, 4 compounds whose answers are already recorded.
In [3]: df
Out[3]:
                                   compound  assayed_target  number
0  CCCCCn1c(O)c(C(=O)Nc2ccccc2S(N)(=O)=O)c(=O)c2ccccc21  UniProt:P60953    3.42
1  CC1(C)OCC(C2OC(O)C3OC(C)(C)OC32)O1 (centres unmarked)  UniProt:P60953   64.92
2  O=C(CSCc1ccccc1)Nc1ccc(C(=O)O)cc1NC(=O)CSCc1ccccc1  UniProt:P60953   74.15
3  O=c1c2ccccc2nc(/C=C/c2c(O)ccc3ccccc23)n1-c1ccc(O)cc1  UniProt:P60953  109.35

The record that follows has no % ZCL367 (inhibitor activity) shown yet.
Query: Indicate its recorded % ZCL367 (inhibitor activity); the compound in question is "OCCNC[C@H](O)Cn1c(-c2ccccc2)c(-c2ccccc2)c2ccc3ccccc3c21"
Response: 27.33

###

The following molecules each carry a recorded IC50 for Cdc42 (Homo sapiens, UniProt P60953).
// units = µM; emit number, no label

>>> df
                                   molecule  readout  number
0  Cc1cc(C)nc(NS(=O)(=O)c2ccc(NC(=S)NC(=O)COc3ccc(Br)cc3Cl)cc2)n1 [ZCL278]     IC50    7.52

The record that follows has no IC50 shown yet.
Query: Fill: IC50 (Cdc42 (Homo sapiens, UniProt P60953)) for this molecule O=C(N/N=C/c1ccccc1O)c1cc(O)cc(O)c1 [ZCL367]
Response: 0.098

###

Entries and their measured % ZCL278 (activator activity) follow.
# assayed-target: UniProtKB P60953
# protocol-text: Cdc42-GEF-assay, additional compound screening
# Type: biochemical
# Set-up: purchased Cytoskeleton Inc
# study-conditions: percentages of ZCL278 activity normalized to batch; more than 100% = more potent activator; Table 9
Provide a numeric answer, followed by its unit.

Query: Indicate its recorded % ZCL278 (activator activity); the molecule in question is Cc1cc(C)nc(NS(=O)(=O)c2ccc(NC(=S)NC(=O)COc3ccc(Br)cc3Cl)cc2)n1 [ZCL278]
Response: 100%

Query: Indicate its recorded % ZCL278 (activator activity); the molecule in question is c1ccc(-c2nc3c(c(NCc4cn5ccsc5n4)n2)CCNC3)cc1 [ZCL1144]
Response: 454.3%

Query: Indicate its recorded % ZCL278 (activator activity); the molecule in question is NC(=O)CCN(Cc1ccccc1)C(=O)Nc1cccc(OC2CCCC2)c1 [ZCL1139]
Response: 100.29%

Query: Indicate its recorded % ZCL278 (activator activity); the molecule in question is NC1C=CN(C2OC(CO)C(O)C2O)C(=O)N1O (stereo not shown) [NSC128731]
Response: 108.28%

###

# assayed-target: Cdc42 (Homo sapiens, UniProt P60953)
# Sequence (P60953 whole entry): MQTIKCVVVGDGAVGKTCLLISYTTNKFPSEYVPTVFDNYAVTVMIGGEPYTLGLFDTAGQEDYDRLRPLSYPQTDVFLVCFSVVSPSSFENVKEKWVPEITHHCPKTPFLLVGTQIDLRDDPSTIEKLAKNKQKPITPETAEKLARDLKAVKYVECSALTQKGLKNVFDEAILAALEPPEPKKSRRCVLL
# protocol-text: Cdc42-GEF-assay, additional compound screening
# Assay type: biochemical
# Parameters: purchased Cytoskeleton Inc
# study-conditions: percentages of ZCL367 normalized to batch; less than 100% = more potent inhibitor
Entries and their measured % ZCL367 (inhibitor activity) follow.
// units = %; emit number, no label

Below, 3 compounds whose answers are already recorded.
In [3]: df
Out[3]:
                                   compound  unit_of_measurement  number
0  O=C1/C(=C/c2ccc(O)c(O)c2)SC(=S)N1Nc1ccccc1                    %   55.74
1  O=C(CCCN1C(=O)/C(=C2\SC(=S)N(CCCC(=O)Nc3ccccc3O)C2=O)SC1=S)Nc1ccccc1O [ZCL1100]                    %   29.97
2  NC(=O)CCN(Cc1ccccc1)C(=O)Nc1cccc(OC2CCCC2)c1                    %   88.55

Query: Indicate its recorded % ZCL367 (inhibitor activity); the compound in question is "O=C(Nc1ccc(S(=O)(=O)Nc2cccc3ccccc23)cc1)Nc1cccc(Cl)c1"
Response: 98.5

Query: Indicate its recorded % ZCL367 (inhibitor activity); the compound in question is O=C(CCCN1C(=O)/C(=C2\SC(=S)N(CCCC(=O)Nc3ccccc3O)C2=O)SC1=S)Nc1ccccc1O [ZCL1110]
Response: 104.15

Reference source: patent US12285393B2
